assay: NCI Yeast Anticancer Drug Screen. Data for the mec2-1 strain (AID 157); conditions: S. cerevisiae mec2-1 strain, at 50.0 µM
Compounds without any hit were thinned out: in the full panel of roughly 79,000, 15% have a hit. Calls of active or inactive are those of the source. Rule as the data show it: active = growth inhibition above about 70%; inactive = the rest.
Labels: active, inactive

{"Molecule": "C#CC(O)c1ccc(Cl)cc1Cl (stereo not drawn)", "Label Value": "active"}
{"Molecule": "C=CCOCC(C)OC(=O)C(C)C (stereo not drawn)", "Label Value": "inactive"}
{"Molecule": "COc1ccc(NCCN(C)C)c2c(=O)c3ccccc3sc12", "Label Value": "inactive"}
{"Molecule": "Oc1ccc(C23CC4CC(CC(C4)C2)C3)cc1", "Label Value": "inactive"}
{"Molecule": "COc1ccc(/C=C2\\CCCc3ccccc3C2=O)cc1", "Label Value": "inactive"}
{"Molecule": "CC(C)(C)c1cc2c(c(C(C)(C)C)c1O)CC(=O)O2", "Label Value": "inactive"}
{"Molecule": "COc1ccc(C23OCCN2C(=O)c2ccccc23)cc1 (stereo not drawn)", "Label Value": "active"}
{"Molecule": "Cc1cn(C2CC(Br)C(COC(c3ccccc3)(c3ccccc3)c3ccccc3)O2)c(=O)[nH]c1=O (stereo not drawn)", "Label Value": "active"}
